target: USP25 (UniProt Q9UHP3); assay: log2 ratio of Biotin-Ahx-Ub-VS probe labelling (fragment/DMSO); higher = less target engagement (more negative = stronger competition), active = hit call of the paper (q ≤ 0.05, log2 ratio ≤ -1); details: compound concentration: 200 uM; treatment time: 3 h
Sequence (Q9UHP3 whole entry, the tested form may be a part): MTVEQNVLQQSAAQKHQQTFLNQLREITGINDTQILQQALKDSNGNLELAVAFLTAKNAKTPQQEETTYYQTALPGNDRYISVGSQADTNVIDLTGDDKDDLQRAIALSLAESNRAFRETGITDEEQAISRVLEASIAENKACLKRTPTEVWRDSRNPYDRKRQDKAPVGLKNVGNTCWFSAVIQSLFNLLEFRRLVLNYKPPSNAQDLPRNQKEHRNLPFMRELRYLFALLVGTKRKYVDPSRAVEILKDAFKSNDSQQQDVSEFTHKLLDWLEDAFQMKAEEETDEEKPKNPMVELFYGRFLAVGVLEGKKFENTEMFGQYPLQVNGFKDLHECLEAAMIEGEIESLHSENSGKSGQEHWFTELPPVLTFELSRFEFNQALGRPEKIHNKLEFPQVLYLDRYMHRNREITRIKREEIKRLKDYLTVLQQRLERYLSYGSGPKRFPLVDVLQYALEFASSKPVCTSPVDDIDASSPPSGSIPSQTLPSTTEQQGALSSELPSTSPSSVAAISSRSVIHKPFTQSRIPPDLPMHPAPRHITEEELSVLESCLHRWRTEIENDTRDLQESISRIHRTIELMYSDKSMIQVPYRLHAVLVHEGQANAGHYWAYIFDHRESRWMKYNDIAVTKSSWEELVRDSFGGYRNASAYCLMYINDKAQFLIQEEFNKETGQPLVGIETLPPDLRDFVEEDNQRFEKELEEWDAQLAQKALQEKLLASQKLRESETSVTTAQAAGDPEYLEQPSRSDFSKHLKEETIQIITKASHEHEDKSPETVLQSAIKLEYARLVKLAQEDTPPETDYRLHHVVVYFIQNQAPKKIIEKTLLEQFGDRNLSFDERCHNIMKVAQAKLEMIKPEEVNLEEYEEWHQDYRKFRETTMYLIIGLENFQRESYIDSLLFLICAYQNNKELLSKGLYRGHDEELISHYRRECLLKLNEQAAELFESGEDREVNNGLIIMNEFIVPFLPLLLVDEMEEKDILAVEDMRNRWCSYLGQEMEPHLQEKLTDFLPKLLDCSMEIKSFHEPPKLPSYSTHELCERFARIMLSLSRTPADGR
Outcomes: Yes for active, No for inactive

# compound, target.or.test.system, group
measured = [
    ("CC(NC(=O)CCl)c1csc(-c2ccccc2)n1.Cl (configuration not stated)", "USP25 (UniProt Q9UHP3)", "No"),
    ("CC1CN(c2ccc(NC(=O)CCl)cc2)CC(C)O1 (configuration not stated)", "USP25 (UniProt Q9UHP3)", "Yes"),
    ("O=C(CCl)N1CCOC2(CCC2)C1", "USP25 (UniProt Q9UHP3)", "No"),
    ("O=C(CCl)NC1CCOc2ccccc21 (configuration not stated)", "USP25 (UniProt Q9UHP3)", "Yes"),
    ("O=C(CCl)Nc1cccc(NC(=O)c2ccccc2)c1", "USP25 (UniProt Q9UHP3)", "No"),
    ("O=C(CN1CCN(C(=O)CCl)CC1)Nc1cccc(F)c1", "USP25 (UniProt Q9UHP3)", "No"),
    ("C[C@@H](NC(=O)CCl)c1cccc(C#N)c1", "USP25 (UniProt Q9UHP3)", "No"),
]

###

target: FAM105A (UniProt Q9NUU6); experiment: log2 ratio of Biotin-Ahx-Ub-VS probe labelling (fragment/DMSO); higher = less target engagement (more negative = stronger competition), active = hit call of the paper (q ≤ 0.05, log2 ratio ≤ -1); settings: compound concentration: 200 uM; treatment time: 3 h
Sequence (Q9NUU6 whole entry, the tested form may be a part): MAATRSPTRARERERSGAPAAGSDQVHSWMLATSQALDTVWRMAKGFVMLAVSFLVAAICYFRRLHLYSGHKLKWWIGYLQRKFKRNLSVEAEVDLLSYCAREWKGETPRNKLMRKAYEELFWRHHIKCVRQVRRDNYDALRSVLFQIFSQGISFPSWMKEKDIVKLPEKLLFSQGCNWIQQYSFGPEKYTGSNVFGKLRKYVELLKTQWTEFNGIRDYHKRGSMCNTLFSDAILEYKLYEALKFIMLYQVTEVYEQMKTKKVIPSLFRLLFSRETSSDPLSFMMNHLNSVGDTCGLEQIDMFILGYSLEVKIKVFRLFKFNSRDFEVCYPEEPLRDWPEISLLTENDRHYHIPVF
parameter.measured: log2 ratio of Biotin-Ahx-Ub-VS probe labelling

# molecule, meas.value
rows = [
    ("CCN(C(=O)CCl)C1CCS(=O)(=O)C1 (configuration not stated)", 0.291),
    ("C[C@H]1CN(C(=O)CCl)CCN1C(=O)c1cnn(C)c1.Cl", 0.375),
    ("O=C(CCl)Nc1ccc2c(c1)OC(F)(F)O2", -0.278),
    ("Cc1noc(N2CCN(C(=O)CCl)CC2)n1.Cl", 0.317),
    ("O=C(CCl)N1CCc2nc[nH]c2C1c1ccc(Cl)cc1 (configuration not stated)", 0.102),
    ("O=C(CCl)N[C@H]1CC[C@@H](CO)CC1", -0.00946),
    ("Cc1nc(CNC(=O)CCl)c2ccccn12.Cl", -0.142),
]

###

Listed here are compounds together with their documented log2 ratio of Biotin-Ahx-Ub-VS probe labelling.
Target: USP38 (UniProt Q8NB14)
Sequence (whole entry): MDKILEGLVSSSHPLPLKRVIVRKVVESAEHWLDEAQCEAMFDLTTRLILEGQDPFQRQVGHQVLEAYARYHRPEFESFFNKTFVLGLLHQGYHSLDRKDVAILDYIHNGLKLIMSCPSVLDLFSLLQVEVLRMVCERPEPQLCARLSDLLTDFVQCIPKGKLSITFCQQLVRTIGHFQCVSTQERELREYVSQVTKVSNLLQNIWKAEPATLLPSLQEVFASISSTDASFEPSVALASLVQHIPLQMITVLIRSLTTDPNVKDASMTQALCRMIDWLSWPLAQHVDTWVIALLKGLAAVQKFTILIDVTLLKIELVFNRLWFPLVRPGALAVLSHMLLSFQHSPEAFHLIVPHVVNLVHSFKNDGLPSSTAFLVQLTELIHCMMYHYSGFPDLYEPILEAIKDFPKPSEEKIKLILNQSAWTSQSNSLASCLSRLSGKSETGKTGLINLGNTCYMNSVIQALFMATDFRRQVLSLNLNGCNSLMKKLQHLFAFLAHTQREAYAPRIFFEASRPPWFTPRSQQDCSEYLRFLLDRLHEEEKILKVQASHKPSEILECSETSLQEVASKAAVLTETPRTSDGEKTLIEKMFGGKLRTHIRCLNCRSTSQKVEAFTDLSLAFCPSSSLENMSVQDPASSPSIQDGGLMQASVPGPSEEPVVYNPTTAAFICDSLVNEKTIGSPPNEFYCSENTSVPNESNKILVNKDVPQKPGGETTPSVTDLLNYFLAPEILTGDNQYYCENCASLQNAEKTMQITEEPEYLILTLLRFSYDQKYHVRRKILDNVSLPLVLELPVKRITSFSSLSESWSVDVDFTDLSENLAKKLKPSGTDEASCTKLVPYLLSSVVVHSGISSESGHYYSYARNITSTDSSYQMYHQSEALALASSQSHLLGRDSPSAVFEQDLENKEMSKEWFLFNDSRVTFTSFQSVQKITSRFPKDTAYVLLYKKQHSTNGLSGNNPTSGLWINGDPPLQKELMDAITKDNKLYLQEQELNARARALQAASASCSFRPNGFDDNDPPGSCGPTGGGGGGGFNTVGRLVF
Experiment: log2 ratio of Biotin-Ahx-Ub-VS probe labelling (compound/DMSO); higher = less target engagement, active = hit call of the paper (q ≤ 0.05, log2 ratio ≤ -1)
Conditions: compound concentration: 50uM; treatment time: 3 h
parameter.measured: log2 ratio of Biotin-Ahx-Ub-VS probe labelling

# compound, meas.value
rows = [
    ("CN1c2ccccc2C(NC(=O)CCl)CS1(=O)=O (centres undefined)", -0.19),
    ("O=C(CCl)NC1CCOc2ccccc21 (centres undefined)", 0.0839),
    ("Cl.O=C(CCl)N1CCc2ncncc2C1", -0.214),
    ("COc1cccc(CN(C)C(=O)CCl)c1", 0.0582),
]
